Entry source: PubChem BioAssay AID1963977

# Test system: 624824-186-R-J3-PDC multicell spheroids, viability;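 also: luminescent signal used as a stand-in for spheroid viability; spheroids exposed to agents for seven days before luminescence read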
# experiment: Anticancer human tumor 624824-186-R-J3-PDC patient-derived colon adenocarcinoma cell line growth inhibition [PI3K]
# measurement.context: second compound 3.16 µM; first compound 0.1 µM; stronger effect = lower value
Simple rule here: viability, T/C less than 60% is yes, otherwise no.

>  <molecule>
Cn1ncnc1[C@H]1c2n[nH]c(=O)c3cc(F)cc(c23)N[C@@H]1c1ccc(F)cc1 + Cc1nc(NC(=O)N2CCCC2C(N)=O)sc1-c1ccnc(C(C)(C)C(F)(F)F)c1

>  <group.label>
no

$$$$
>  <molecule>
C#Cc1c(F)ccc2cc(O)cc(-c3ncc4c(N5CC6CCC(C5)N6)nc(OCC56CCCN5CC(F)C6)nc4c3F)c12 (stereo not given) + Cc1nc(NC(=O)N2CCCC2C(N)=O)sc1-c1ccnc(C(C)(C)C(F)(F)F)c1

>  <group.label>
no

$$$$
>  <molecule>
CC1(C)CCC(Nc2ncc(C(F)(F)F)c(-c3c[nH]c4c(P(C)(C)=O)c(C#N)ccc34)n2)CN1 (stereo not given) + Cc1nc(NC(=O)N2CCCC2C(N)=O)sc1-c1ccnc(C(C)(C)C(F)(F)F)c1

>  <group.label>
yes

$$$$
>  <molecule>
CC(C)n1nc(-c2ccc3oc(N)nc3c2)c2c(N)ncnc21 + Cc1nc(NC(=O)N2CCCC2C(N)=O)sc1-c1ccnc(C(C)(C)C(F)(F)F)c1

>  <group.label>
yes

$$$$
>  <molecule>
CC(=O)c1c(C)c2cnc(Nc3ccc(N4CCNCC4)cn3)nc2n(C2CCCC2)c1=O + Cc1nc(NC(=O)N2CCCC2C(N)=O)sc1-c1ccnc(C(C)(C)C(F)(F)F)c1

>  <group.label>
no

$$$$
